The reported numbers originate from patent US11008314B2.

Listing: IC50 of selected molecules
- target: UniProtKB Q08881
- Sequence (Q08881 whole entry): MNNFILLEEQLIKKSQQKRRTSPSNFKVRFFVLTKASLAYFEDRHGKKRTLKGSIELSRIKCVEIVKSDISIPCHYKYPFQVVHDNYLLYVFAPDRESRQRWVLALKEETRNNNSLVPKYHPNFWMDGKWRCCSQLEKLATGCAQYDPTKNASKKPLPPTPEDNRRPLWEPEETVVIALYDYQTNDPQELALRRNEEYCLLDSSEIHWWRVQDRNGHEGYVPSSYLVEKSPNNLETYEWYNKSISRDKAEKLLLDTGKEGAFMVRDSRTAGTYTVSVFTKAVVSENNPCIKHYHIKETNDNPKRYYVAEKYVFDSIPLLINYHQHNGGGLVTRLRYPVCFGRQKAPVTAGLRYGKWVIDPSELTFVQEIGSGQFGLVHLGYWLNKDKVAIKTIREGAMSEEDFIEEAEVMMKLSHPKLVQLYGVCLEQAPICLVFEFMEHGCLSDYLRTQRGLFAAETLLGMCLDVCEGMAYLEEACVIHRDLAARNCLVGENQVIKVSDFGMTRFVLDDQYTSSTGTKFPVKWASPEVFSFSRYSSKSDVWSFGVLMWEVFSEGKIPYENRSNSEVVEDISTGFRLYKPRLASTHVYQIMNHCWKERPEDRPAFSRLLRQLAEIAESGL
- protocolText: IC50 against ITK
- Assay type: biochemical
measuredQuantity: IC50

# testSmiles, measuredQuantity, measuredResult
records = [
    ("C=CC(=O)N1CCN(C(=O)c2cc(Sc3cnc(NC(=O)C4CC4)s3)c(C)cc2C(F)(F)F)C[C@H]1C", "IC50", "100 to 1000 nM"),
    ("C=CC(=O)N1CCN(C(=O)c2cc(Sc3cnc(NC(C)=O)s3)c(C)cc2OC)[C@@H](C)C1", "IC50", "< 10 nM"),
    ("C=CC(=O)N1CCN(C(=O)c2cc(Sc3cnc(NC(=O)C4CC4)s3)c(C)cc2C)CC1", "IC50", "< 10 nM"),
    ("C=CC(=O)N1CCC2(C1)CN(C(=O)c1cc(Sc3cnc(NC(=O)c4ccsc4)s3)c(C)cc1OC)C2", "IC50", "< 10 nM"),
    ("C=CC(=O)N1CCCN(C(=O)c2cc(Sc3cnc(NC(=O)C(C)C)s3)c(C)cc2OC)CC1", "IC50", "10 to 100 nM"),
    ("C=CC(=O)N1CCCN(C(=O)c2cc(Sc3cnc(NC(=O)c4ccsc4)s3)c(C)cc2OC)C[C@H]1CC", "IC50", "< 10 nM"),
    ("C=CC(=O)N1CC[C@H](N(C)C(=O)c2cc(Sc3cnc(NC(C)=O)s3)c(C)cc2OC)C1", "IC50", "10 to 100 nM"),
    ("C=CC(=O)N1CCCN(C(=O)c2cc(Sc3cnc(NC(=O)c4ccc(F)c(CN(C)C)c4)s3)c(C)cc2OC)CC1", "IC50", "< 10 nM"),
    ("C=CC(=O)N1CCN(C(=O)c2cc(Sc3cnc(NC(=O)c4cnn(C)c4)s3)c(C)cc2OC)C[C@H]1CC", "IC50", "< 10 nM"),
    ("C=CC(=O)N1CCN(C(=O)c2cc(Sc3cnc(NC(=O)c4ccn(C)c4)s3)c(C)cc2OC)C[C@H]1CC", "IC50", "< 10 nM"),
    ("C=CC(=O)N1CCCN(C(=O)c2cc(Sc3cnc(NC(=O)C4CC4)s3)c(C)cc2C)C[C@H]1C", "IC50", "< 10 nM"),
    ("C=CC(=O)N1CCCN(C(=O)c2cc(Sc3cnc(NC(=O)N(C)C)s3)c(C)cc2OC)C[C@H]1C", "IC50", "100 to 1000 nM"),
    ("CC#CC(=O)N1CCCN(C(=O)c2cc(Sc3cnc(NC(=O)c4cccc(CN(C)C)c4)s3)c(C)cc2OC)CC1", "IC50", "10 to 100 nM"),
    ("C=CC(=O)N1CCN(C(=O)c2cc(Sc3cnc(NC(=O)C4CC4)s3)c(C)cc2OC)CC[C@H]1C", "IC50", "10 to 100 nM"),
    ("C=CC(=O)N1CCN(C(=O)c2cc(Sc3cnc(NC(=O)c4cnsc4)s3)c(C)cc2OC)CC1", "IC50", "< 10 nM"),
]

----------
- target: JAK3 (Homo sapiens (Human))
- Sequence (P52333 whole entry, species assumed): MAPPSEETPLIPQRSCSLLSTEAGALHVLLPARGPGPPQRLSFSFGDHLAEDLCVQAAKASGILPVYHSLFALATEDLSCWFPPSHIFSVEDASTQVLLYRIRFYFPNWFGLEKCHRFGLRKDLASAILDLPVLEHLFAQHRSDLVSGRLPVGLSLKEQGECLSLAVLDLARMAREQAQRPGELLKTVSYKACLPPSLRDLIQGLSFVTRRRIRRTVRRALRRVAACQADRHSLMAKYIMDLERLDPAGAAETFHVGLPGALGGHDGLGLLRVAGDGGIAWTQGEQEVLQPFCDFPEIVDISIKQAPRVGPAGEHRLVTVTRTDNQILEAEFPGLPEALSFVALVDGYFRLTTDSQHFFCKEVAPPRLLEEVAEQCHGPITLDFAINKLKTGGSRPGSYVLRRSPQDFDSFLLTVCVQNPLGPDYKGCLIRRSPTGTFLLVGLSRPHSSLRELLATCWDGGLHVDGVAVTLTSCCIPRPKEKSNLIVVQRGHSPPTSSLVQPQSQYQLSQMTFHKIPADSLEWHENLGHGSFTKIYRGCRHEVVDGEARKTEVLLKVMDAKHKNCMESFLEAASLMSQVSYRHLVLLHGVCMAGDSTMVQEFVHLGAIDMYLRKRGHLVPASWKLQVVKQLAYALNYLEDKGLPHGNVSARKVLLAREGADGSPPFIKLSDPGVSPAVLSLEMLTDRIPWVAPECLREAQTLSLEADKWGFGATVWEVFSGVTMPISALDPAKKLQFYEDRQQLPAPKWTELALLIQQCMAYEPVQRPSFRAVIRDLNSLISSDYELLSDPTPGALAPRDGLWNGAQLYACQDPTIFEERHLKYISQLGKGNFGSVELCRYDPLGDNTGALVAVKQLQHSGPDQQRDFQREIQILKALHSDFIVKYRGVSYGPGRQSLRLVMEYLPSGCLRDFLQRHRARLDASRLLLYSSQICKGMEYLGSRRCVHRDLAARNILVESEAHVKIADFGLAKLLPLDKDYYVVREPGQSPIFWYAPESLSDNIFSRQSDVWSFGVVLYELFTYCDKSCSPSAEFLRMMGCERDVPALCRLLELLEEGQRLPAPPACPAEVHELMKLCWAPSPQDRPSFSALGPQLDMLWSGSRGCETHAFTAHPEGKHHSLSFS
- protocolText: IC50 against JAK3
- Type: biochemical

# compound, IC50
measured = [
    ("C=CC(=O)N1CCN(C(=O)c2cc(Sc3cnc(NC(=O)C4CC4)s3)c(Cl)cc2C)C[C@H]1CC [Compound 101]", "100 to 1000 nM"),
    ("C=CC(=O)N1C[C@H]2CC[C@@H](C1)N2C(=O)c1cc(Sc2cnc(NC(=O)c3ccsc3)s2)c(C)cc1OC [Compound 143]", "10 to 100 nM"),
    ("C=CC(=O)N1CCN(C(=O)c2cc(Sc3cnc(NC(=O)c4cccc(CN(C)C)c4)s3)c(C)cc2OC)C[C@H]1C#N [Compound 124]", "< 10 nM"),
    ("C=CC(=O)N1CCCN(C(=O)c2cc(CSc3cnc(NC(=O)C4CC4)s3)cc(C)c2C)CC1 [Compound 58]", "1000 to 10000 nM"),
    ("C=CC(=O)N1CCN(C(=O)c2cc(Sc3cnc(NC(=O)c4cnn(C)c4)s3)c(C)cc2C)CC1 [Compound 108]", "100 to 1000 nM"),
    ("C=CC(=O)N1CCN(C(=O)c2cc(Sc3cnc(NC(=O)C4CC4)s3)c(C)cc2C)C[C@H]1CC [Compound 100]", "100 to 1000 nM"),
    ("C=CC(=O)N1CCN(C(=O)c2cc(Sc3cnc(NC(=O)c4cnsc4)s3)c(C)cc2C)C[C@H]1CC [Compound 131]", "100 to 1000 nM"),
    ("C=CC(=O)N1[C@@H]2CC[C@H]1CN(C(=O)c1cc(Sc3cnc(NC(=O)C4CC4)s3)c(C)cc1OC)C2 [Compound 18]", "10 to 100 nM"),
    ("C=CC(=O)N1[C@@H]2CC[C@H]1CN(C(=O)c1cc(Sc3cnc(NC(=O)c4ccsc4)s3)c(C)cc1OC)C2 [Compound 155]", "10 to 100 nM"),
    ("C=CC(=O)N1CCN(C(=O)c2cc(Sc3cnc(NC(=O)C4CC4)s3)ccc2OC)C[C@H]1C [Compound 79]", "100 to 1000 nM"),
    ("C=CC(=O)N1CCN(C(=O)c2cc(Sc3cnc(NC(=O)c4ccsc4)s3)c(C)cc2C)C[C@H]1CC [Compound 130]", "100 to 1000 nM"),
    ("C=C(CN(C)C)C(=O)N1CCN(C(=O)c2cc(Sc3cnc(NC(=O)C4CC4)s3)c(C)cc2OC)CC1 [Compound 13]", "1000 to 10000 nM"),
    ("C=CC(=O)N1CCN(C(=O)c2cc(Sc3cnc(NC(=O)c4ccsc4)s3)c(C)cc2OC)CC1 [Compound 90]", "10 to 100 nM"),
    ("C=CC(=O)N1CCN(C(=O)c2cc(Sc3cnc(NC(=O)c4cccc(CN(C)C)c4)s3)c(C)cc2C)C[C@H]1C#N [Compound 125]", "< 10 nM"),
    ("C=CC(=O)N1CCN(C(=O)c2cc(Sc3cnc(NC(=O)C4CC4)s3)c(F)cc2C)C[C@H]1C [Compound 82]", "100 to 1000 nM"),
]
